Cited source: patent US4439606A

Test system: serum cholesterol and triglyceride
Test: Lowering of serum lipid levels, oral administration in diet to rats
Assay type: in vivo, male rats COBS, CD, SD strain
Details: 0.1% of test compound by weight in diet, 5 days, vs control rats
Protocol: The compounds were also tested for their ability to lower lipid levels in mammals. […] After 5 days treatment, serum cholesterol and triglyceride concentrations were determined by direct enzymatic procedures using a Centrifichem® System 400 autoanalyzer (Union Carbide Co.). Cholesterol concentrations were determined by the combined cholesterol esterasecholesterol oxidase procedure of Roeschlau, et al., Zeit. […]
Assignment: determine reported % Lowering of Serum Triglycerides for the given compounds.

Note to self: % Lowering of Serum Triglycerides recorded for "Cc1ccccc1CC(=O)N1CCN(c2cnccn2)CC1" was 55%

% Lowering of Serum Triglycerides reading for "O=C(N1CCN(c2cnccn2)CC1)C(F)(F)C(F)(F)C(F)(F)C(F)(F)C(F)(F)C(F)(F)C(F)(F)F" : 74%

% Lowering of Serum Triglycerides recorded for this compound, CC(Oc1ccccc1)C(=O)N1CCN(c2cnccn2)CC1 (stereo not shown) , is 62%

The compound identified as "O=C(c1ccccc1)N1CCN(c2cnccn2)CC1" registered its % Lowering of Serum Triglycerides at 30%

Short answer for "O=C(CCCCC(=O)N1CCN(c2cnccn2)CC1)c1ccc(Cl)cc1" : % Lowering of Serum Triglycerides was 45%

compound "Cc1cccc(CC(=O)N2CCN(c3cnccn3)CC2)c1" , % Lowering of Serum Triglycerides observed: 40%

Recorded % Lowering of Serum Triglycerides (compound "COc1cncc(N2CCN(C(=O)Cc3ccccc3)CC2)n1" ): 56%

% Lowering of Serum Triglycerides for "O=C(Cc1ccc(Cl)cc1Cl)N1CCN(c2cnccn2)CC1" is 44%

The compound identified as "O=C(Nc1ccc(Cl)cc1)N1CCN(c2cnccn2)CC1" registered its % Lowering of Serum Triglycerides at 33%

For this compound ( "O=C(c1cccnc1)N1CCN(c2cnccn2)CC1" ), measured % Lowering of Serum Triglycerides is 30%

Lookup result for "Cc1ccc(CC(=O)N2CCN(c3cnccn3)CC2)cc1" ; measured % Lowering of Serum Triglycerides: 49%

Recorded % Lowering of Serum Triglycerides (compound "O=C(Cc1ccc(Cl)cc1)N1CCN(c2cnccn2)CC1" ): 51%

Per the records, this compound ( "O=C(Cc1ccccc1)N1CCN(Cc2cccnc2)CC1" ) has % Lowering of Serum Triglycerides equal to 34%

Query CC1CN(C(=O)Cc2ccccc2)CCN1c1ccc(Cl)cc1 (stereo not shown) yields % Lowering of Serum Triglycerides of 61%

The measured % Lowering of Serum Triglycerides associated with "O=C(Cc1ccccc1)N1CCN(c2ccc3ccccc3n2)CC1" reads 53%

% Lowering of Serum Triglycerides reading for "CNC(=O)N1CCN(c2cnccn2)CC1" : 38%

Field % Lowering of Serum Triglycerides (entry "O=C(Cc1cccc(Cl)c1)N1CCN(c2cnccn2)CC1" ) reads 46%

Please fill in: % Lowering of Serum Triglycerides reported for "CCNC(=O)N1CCN(c2cnccn2)CC1" = 43%

% Lowering of Serum Triglycerides measured on "O=C(N1CCN(c2cnccn2)CC1)C(F)(F)C(F)(F)C(F)(F)F" = 51%

The compound listed as "O=C(C1CC1)N1CCN(c2cnccn2)CC1" has a reported % Lowering of Serum Triglycerides of 37%

Record "O=C(CCCCCc1ccc(Cl)cc1)N1CCN(c2cnccn2)CC1" . Reported % Lowering of Serum Triglycerides: 30%

Looking up "CC(C)(Oc1ccc(Cl)cc1)C(=O)N1CCN(c2cnccn2)CC1" , I found its % Lowering of Serum Triglycerides recorded as 42%

###

Target: fatty acyl CoA:-cholesterol acyl transferase (ACAT) (Rattus norvegicus, UniProt O70536)
Construct: The supernatant, containing the microsomal fraction, served as the source of the cholesterol-esterifying enzyme; from tissue; host or cells: rat adrenals, 1000 x g supernatant containing the microsomal fraction
Sequence (O70536 whole entry): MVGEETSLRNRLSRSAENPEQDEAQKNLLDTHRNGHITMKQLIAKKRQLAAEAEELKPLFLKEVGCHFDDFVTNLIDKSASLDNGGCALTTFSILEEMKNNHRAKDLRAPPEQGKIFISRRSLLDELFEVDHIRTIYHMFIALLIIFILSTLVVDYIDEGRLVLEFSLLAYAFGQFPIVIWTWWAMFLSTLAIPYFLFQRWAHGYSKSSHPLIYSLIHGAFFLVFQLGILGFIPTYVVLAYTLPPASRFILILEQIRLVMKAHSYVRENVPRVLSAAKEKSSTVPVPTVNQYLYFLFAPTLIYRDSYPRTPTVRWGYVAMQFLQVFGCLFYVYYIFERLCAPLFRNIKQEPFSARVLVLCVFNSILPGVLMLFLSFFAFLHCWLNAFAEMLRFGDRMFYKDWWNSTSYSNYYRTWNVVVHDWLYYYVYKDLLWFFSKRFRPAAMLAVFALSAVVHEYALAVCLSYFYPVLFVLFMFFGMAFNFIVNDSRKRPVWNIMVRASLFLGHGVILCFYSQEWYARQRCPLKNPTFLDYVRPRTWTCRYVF
Assay: Inhibition of enzymatic esterification of cholesterol (ACAT inhibition), rat adrenal supernatant
Assay type: biochemical
Conditions: final concentration 5.2 μg./ml., 37° C., 30 minutes
Description: The compounds of the present invention were tested for their ability to inhibit the enzymatic esterification of cholesterol according to the procedure of Hashimoto, et al., Life Sci., 12(Part II), 1-12 (1973). Rat adrenals were homogenized in 0.2 M monobasic potassium phosphate buffer, pH 7.4, and centrifuged at 1000 times gravity for 15 minutes at 5° C. […] The cholesterol ester fraction was counted in a scintillation counter. […]
Task for the reader: assign each of the following compounds its reported inhibition at 5.2 µg/mL.
I only need the number, in %, no unit after it.

Entry "O=C(CCCCC(=O)N1CCN(c2cnccn2)CC1)c1ccc(Cl)cc1" , tested on fatty acyl CoA:-cholesterol acyl transferase (ACAT) (Rattus norvegicus, UniProt O70536), has a reported inhibition at 5.2 µg/mL of 47.4

The compound "O=C(Cc1ccc(Cl)cc1Cl)N1CCN(c2cnccn2)CC1" , tested on fatty acyl CoA:-cholesterol acyl transferase (ACAT) (Rattus norvegicus, UniProt O70536), showed inhibition at 5.2 µg/mL of 32.2

inhibition at 5.2 µg/mL for fatty acyl CoA:-cholesterol acyl transferase (ACAT) (Rattus norvegicus, UniProt O70536) with input "COc1cncc(N2CCN(C(=O)Cc3ccccc3)CC2)n1" equals 38.1

Fill in: fatty acyl CoA:-cholesterol acyl transferase (ACAT) (Rattus norvegicus, UniProt O70536) inhibition at 5.2 µg/mL for "O=C(Cc1ccccc1)N1CCN(c2ccccc2)CC1" = 34.6

Measured on fatty acyl CoA:-cholesterol acyl transferase (ACAT) (Rattus norvegicus, UniProt O70536), "Cc1ccccc1CC(=O)N1CCN(c2nccs2)CC1" has a documented inhibition at 5.2 µg/mL of 32.6

Hey, fatty acyl CoA:-cholesterol acyl transferase (ACAT) (Rattus norvegicus, UniProt O70536) data for "O=C(N1CCN(c2cnccn2)CC1)C(F)(F)C(F)(F)C(F)(F)C(F)(F)C(F)(F)C(F)(F)C(F)(F)F" : inhibition at 5.2 µg/mL came out at 39

inhibition at 5.2 µg/mL of "CC(C)(C)NC(=O)N1CCN(c2cnccn2)CC1" , assay on fatty acyl CoA:-cholesterol acyl transferase (ACAT) (Rattus norvegicus, UniProt O70536), is 35.4

Item "O=C(Cc1ccccc1)N1CCN(c2ccc3ccccc3n2)CC1" was tested on fatty acyl CoA:-cholesterol acyl transferase (ACAT) (Rattus norvegicus, UniProt O70536); the reported inhibition at 5.2 µg/mL is 89.7

Form field inhibition at 5.2 µg/mL for item "CC(C)(Oc1ccc(Cl)cc1)C(=O)N1CCN(c2cnccn2)CC1" on fatty acyl CoA:-cholesterol acyl transferase (ACAT) (Rattus norvegicus, UniProt O70536): 54.1

Result for "CC(C)(C)c1ccc(C(=O)N2CCN(c3cnccn3)CC2)cc1" , tested on fatty acyl CoA:-cholesterol acyl transferase (ACAT) (Rattus norvegicus, UniProt O70536), inhibition at 5.2 µg/mL: 39.7

inhibition at 5.2 µg/mL on fatty acyl CoA:-cholesterol acyl transferase (ACAT) (Rattus norvegicus, UniProt O70536) for CC(Oc1ccccc1)C(=O)N1CCN(c2cnccn2)CC1 (centres unmarked) is 30.5
